- assay_system: T1, canine PD-1 (canine)
- T1 construct: Expressed full length on transiently transfected 293FS cells; also called full length canine PD-1
- T1 chain: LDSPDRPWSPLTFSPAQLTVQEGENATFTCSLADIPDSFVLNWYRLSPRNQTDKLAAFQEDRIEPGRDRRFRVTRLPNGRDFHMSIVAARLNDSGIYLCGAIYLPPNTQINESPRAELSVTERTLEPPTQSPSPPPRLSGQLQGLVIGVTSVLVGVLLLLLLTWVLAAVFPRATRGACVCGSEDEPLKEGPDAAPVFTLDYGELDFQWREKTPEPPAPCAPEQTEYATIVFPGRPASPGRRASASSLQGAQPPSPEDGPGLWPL
- procedure_text: flow cytometry on 293FS cells transiently expressing full length canine PD-1
Item-by-item account of Kd

// solved cases for Kd follow
Qu. Report Kd for czPD1-14v3-Fc xEML-DANA (Fc fusion, Dimer formation is stated only in embodiment language) EVQLVESGGGEVKPGGSLRLSCVASGRTVSIYAMGWFRQAPGKEREFVAGIGWNGGTTYYADAVKGRFTISRDHAKNTVYLQMSSLRAEDTAVYYCAAQESAAGTLGDYWGQGTQVTVKPGGGGENGRVPRPPDCPKCPAPGGPSVFIFPPKPKDTLLIARTPEVTCVVVALDPEDPEVQISWFVDGKQMQTAKTQPREEQFAGTYRVVSVLPIGHQDWLKGKQFTCKVNNKALPSPIERTISKARGQAHQPSVYVLPPSREELSKNTVSLTCLIKDFFPPDIDVEWQSNGQQEPESKYRTTPPQLDEDGSYFLYSKLSVDKSRWQRGDTFICAVMHEALHNHYTQKSLSHSPGK please.
Ans. 3.24 nM

Qu. Further, for PD1-5-Fc xEML-DANA (Fc fusion) QVTLRESGGGLVQPGGSLRLSCAASGLTFGLYAMTWFRQAPGKDREGISCISSSDGSTIYADSVKGRFTASRDNAKDTMYLQMNNLNPEDTAVYYCATDYETRCDYGLRLRDRTAYWGPGTQVTVKPENGRVPRPPDCPKCPAPGGPSVFIFPPKPKDTLLIARTPEVTCVVVALDPEDPEVQISWFVDGKQMQTAKTQPREEQFAGTYRVVSVLPIGHQDWLKGKQFTCKVNNKALPSPIERTISKARGQAHQPSVYVLPPSREELSKNTVSLTCLIKDFFPPDIDVEWQSNGQQEPESKYRTTPPQLDEDGSYFLYSKLSVDKSRWQRGDTFICAVMHEALHNHYTQKSLSHSPGK ?
Ans. < 10 nM

// next entry
Qu. Report Kd for PD1-13-Fc xEML-DANA (Fc fusion, Dimer formation is stated only in embodiment language) QVTLKESGGGLVQAGGSLRLSCAASGRTEIIYAMGWFRQAPGKEREFVAGIGWSGGTTYYADSVEGRFTISRDSAKNTVYLQMRSLKPEDTAVYYCAAQDSVAGTLGDYWGQGTQVTVKPGGGGENGRVPRPPDCPKCPAPGGPSVFIFPPKPKDTLLIARTPEVTCVVVALDPEDPEVQISWFVDGKQMQTAKTQPREEQFAGTYRVVSVLPIGHQDWLKGKQFTCKVNNKALPSPIERTISKARGQAHQPSVYVLPPSREELSKNTVSLTCLIKDFFPPDIDVEWQSNGQQEPESKYRTTPPQLDEDGSYFLYSKLSVDKSRWQRGDTFICAVMHEALHNHYTQKSLSHSPGK please.
Ans. < 10 nM
